log10 MFC99.5 overview
system: Trichoderma viride; experiment: Fungicidal activity against Trichoderma viride IAM 5061 after 72 hrs by microdilution method; type: functional
Observed Property: log10 MFC99.5 (log10 of the value in ×10⁻² umol/ml)

{"columns": ["Compound", "Assay System", "log10 MFC99.5"],
 "data": [
  ["CCNc1nc(C)c(C2=NN(c3ccccc3)C(c3ccccc3)C2)s1 (configuration not stated)", "Trichoderma viride", 1.49],
  ["CNc1nc(C)c(C2=NN(c3ccccc3)C(c3ccc(C)cc3)C2)s1 (configuration not stated)", "Trichoderma viride", 1.04],
  ["CNc1nc(C)c(C2=NN(c3ccccc3)C(c3ccc([N+](=O)[O-])cc3)C2)s1 (configuration not stated)", "Trichoderma viride", 1.18],
  ["Cc1nc(-c2ccccc2)sc1C1=NN(c2ccccc2)C(c2ccccc2)C1 (configuration not stated)", "Trichoderma viride", 1.40],
  ["CNc1nc(C)c(C2=NN(c3ccccc3)C(c3ccc(F)cc3)C2)s1 (configuration not stated)", "Trichoderma viride", 1.68],
  ["c1ccc(-c2ccc(C(c3ccccc3)n3ccnc3)cc2)cc1 (configuration not stated)", "Trichoderma viride", 1.90],
  ["CNc1nc(C)c(C2=NN(c3ccccc3)C(c3ccc(OC)cc3)C2)s1 (configuration not stated)", "Trichoderma viride", 1.12],
  ["CNc1nc(C)c(-c2cc(-c3ccccc3)nc(N)n2)s1", "Trichoderma viride", 0.53],
  ["CC(=O)N1CCN(c2ccc(OCC3COC(Cn4ccnc4)(c4ccc(Cl)cc4Cl)O3)cc2)CC1 (configuration not stated)", "Trichoderma viride", 2.76],
  ["CNc1nc(C)c(C2=NN(c3ccccc3)C(c3ccccc3)C2)s1 (configuration not stated)", "Trichoderma viride", 1.60],
  ["CNc1nc(C)c(C2=NN(c3ccccc3)C(c3ccc(Cl)cc3)C2)s1 (configuration not stated)", "Trichoderma viride", 1.32],
  ["Cc1nc(-c2ccccc2)sc1-c1cc(-c2ccccc2)nc(N)n1", "Trichoderma viride", 1.46]
]}

---

log10 of MFC99.5: recorded values
test system: Aspergillus versicolor; assay: Fungicidal activity against Aspergillus versicolor ATCC 11730 after 72 hrs by microdilution method; assay type: functional
Observed Property: log10 of MFC99.5 (log10 of the value in ×10⁻² umol/ml)

{"columns": ["Compound", "Observed Property", "Value Observed"],
 "data": [
  ["CC(=O)N1CCN(c2ccc(OCC3COC(Cn4ccnc4)(c4ccc(Cl)cc4Cl)O3)cc2)CC1 (stereo unspecified) [KETOCONAZOLE]", "log10 of MFC99.5", 2.58],
  ["CNc1nc(C)c(C2=NN(c3ccccc3)C(c3ccc(Cl)cc3)C2)s1 (stereo unspecified)", "log10 of MFC99.5", 1.32],
  ["CNc1nc(C)c(C2=NN(c3ccccc3)C(c3ccc(C)cc3)C2)s1 (stereo unspecified)", "log10 of MFC99.5", 1.44],
  ["CNc1nc(C)c(C2=NN(c3ccccc3)C(c3ccc(F)cc3)C2)s1 (stereo unspecified)", "log10 of MFC99.5", 1.33],
  ["c1ccc(-c2ccc(C(c3ccccc3)n3ccnc3)cc2)cc1 (stereo unspecified) [BIFONAZOLE]", "log10 of MFC99.5", 1.81],
  ["CCNc1nc(C)c(C2=NN(c3ccccc3)C(c3ccccc3)C2)s1 (stereo unspecified)", "log10 of MFC99.5", 1.44],
  ["CNc1nc(C)c(C2=NN(c3ccccc3)C(c3ccc([N+](=O)[O-])cc3)C2)s1 (stereo unspecified)", "log10 of MFC99.5", 1.51],
  ["Cc1nc(-c2ccccc2)sc1C1=NN(c2ccccc2)C(c2ccccc2)C1 (stereo unspecified)", "log10 of MFC99.5", 1.18],
  ["CNc1nc(C)c(C2=NN(c3ccccc3)C(c3ccccc3)C2)s1 (stereo unspecified)", "log10 of MFC99.5", 1.36],
  ["Cc1nc(-c2ccccc2)sc1-c1cc(-c2ccccc2)nc(N)n1", "log10 of MFC99.5", 0.95],
  ["CNc1nc(C)c(C2=NN(c3ccccc3)C(c3ccc(OC)cc3)C2)s1 (stereo unspecified)", "log10 of MFC99.5", 1.32]
]}

Reference source: ChEMBL document CHEMBL3585344
